FYI, the data here is from paper PMC10835732.

# Method Summary: Plasma pharmacokinetics (noncompartmental analysis) after single oral administration of Arbequina table olives
# Assay type: in vivo, Sprague-Dawley rats
# Experimental Parameters: Sprague-Dawley, rat, plasma; both doses (30 and 60 olives groups), oral table olives; read-out: mean residence time (MRT0–∞)

Compound | MRT inf
OCCc1ccc(O)c(O)c1 [hydroxytyrosol] | ~4 h

---

# Method Summary: Plasma pharmacokinetics (noncompartmental analysis) after single oral administration of Arbequina table olives
# Type: in vivo, Sprague-Dawley rats
# Experimental Parameters: Sprague-Dawley, rat, plasma; 60 olives group (hydroxytyrosol 5.89 mg/kg oral); read-out: Peak plasma concentration (Cmax), text value with ± spread
# Method: The experiments were performed using Sprague–Dawley rats (n = 13) randomly divided into two groups, the 30 olives group (n = 6) that received the dose of 3.85 g/kg and the 60 olives group (n = 7), which was given the dose of 7.70 g/kg. […] Hydroxytyrosol and its metabolites in plasma were determined by liquid–liquid extraction followed by LC-MS/MS analysis as previously described.[11] […]

Molecule | Unit Text | Cmax
OCCc1ccc(O)c(O)c1 [hydroxytyrosol] | nM | 43
